The entries below come with measured log10 of Kd values attached.
molecular target: T1, soluble form of the extracellular domain of human CD40 (Creative BioMart) (human, UniProt P25942 21-193); assay: SPR, Ab captured
T1 construct: Bought
T1 sequence (P25942 21-193 limits assumed): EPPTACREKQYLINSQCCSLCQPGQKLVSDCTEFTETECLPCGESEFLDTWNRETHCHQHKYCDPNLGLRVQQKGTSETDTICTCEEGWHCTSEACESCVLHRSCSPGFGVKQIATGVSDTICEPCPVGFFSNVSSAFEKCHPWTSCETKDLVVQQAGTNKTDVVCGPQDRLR
// stored as log10 of Kd expressed in nM

Lab note: AD163.10.7 (antibody, V domains shown, mouse hybridoma antibody; also called muAb4) VH: LVQPGGSLSLSCAASGFTFSDYYMSWVRQPPGKALEWLGFIRNKANGYTTEFSASVKGRFTISRDNSQSILYLQMNALRAEDSATYYCARYGGLRQGWYFDVWGTGTTVTVSS VL: DIQMTQTTSSLSASLGDRVTISCRASQDIRNYLNWYQQKPDGTVKLLIYYTSRLHSGVPSRFSGSGSGTDYSLTISNLEQEDIATYFCQQGKTLPWTFGGGSKLEMK gave log10 of Kd of 1.88

Lab note: AD163.162.1 (antibody, V domains shown, mouse hybridoma antibody; also called muAb6) VH: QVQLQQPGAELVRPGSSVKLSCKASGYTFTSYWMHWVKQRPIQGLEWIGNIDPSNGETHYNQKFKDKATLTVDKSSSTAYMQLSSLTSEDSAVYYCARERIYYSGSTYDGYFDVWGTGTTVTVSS VL: QIVLTQSPAIMSASPGEKVTMTCSASSSLSYMHWYQQKSGTSPKRWIYDTSKLASGVPARFSGSGSGTSYSLTISSMEAEDAATYYCQQWSSNPWTFGGGTKLEIK gave log10 of Kd of 1.80

Lab note: AD164.14.6 (antibody, V domains shown, mouse hybridoma antibody; also called muAb9) VH: DVQLQESGPGLVKPSQSLSLTCSVTGYSITSNYYWNWIRQFPGNKLEWMGYIRYDGSNNYNPSLKNRISITRDTSKNQFFLKLNSVTTEDTATYYCARLDYWGQGTTLTVSS VL: DAVMTQTPLSLPVSLGDQASISCRSSQSLENTNGNTFLNWFLQKPGQSPQLLIYRVSNRFSGVPDRFSGSGSGTDFTLKISRVEAEDLGVYFCLQVTHVPFTFGSGTKLEIK gave log10 of Kd of 1.28

Lab note: AD163.7.2 (antibody, V domains shown, mouse hybridoma antibody; also called muAb8) VH: QVQLQQSGPELVKSGASVKISCKASGYTFTDYYINWVKQRPGQGLEWIGWIFPGSGSVYCNEQFKGQATLTVDRSSSTAYMLLSSLTSEDSAVYFCASSLGKFAYWGQGTLVTVSA VL: DIVMTQSQKFMSTTVGDRVSITCKASQSVVTAVAWYQQKPGQSPKLLIYSASNRYTGVPDRFTGSGSGTDFALTIRTMQSEDLADYFCQQYSSYPYTFGGGTKLEIK gave log10 of Kd of 0.61

Lab note: AD166.4.4 (antibody, V domains shown, mouse hybridoma antibody; also called muAb2) VH: QVQLQQSGAELMKPGASAKLSCKATGYTFTGYWIQWVKQRPGHGLEWIGEILPGGDHTKYNEKFRGKATFTSDTSSNTVYMQLSSLTTEDSAIYYCARVGGDYWGQGTTLTVSS VL: DVVMTQTPLSLPVSLGDQASISCRSSQSLVNSNENTYLHWYLQKPGQSPKLLIYKVFNRYSGVPDRFSGSGSGTDFTLKISRVEAEDLGVYFCFQSTHVPWTFGGGTKLEIK gave log10 of Kd of 0.54

Lab note: AD175.14.11 (antibody, V domains shown, mouse hybridoma antibody; also called muAb3) VH: EVQLQQSGPELVKPGASVKISCKASGYTFTDYYMNWVKQSHGKSLEWIGDINPNNGGTSYNQKFKGKATLTVDKSSSTAYMELRSLTSEDSAVYYCARRGGLGRGTYALDYWGQGTSVTVSS VL: DIQMTQTTSSLSASLGDRVTISCRASQDISNYLNWYQQKPDGTVKPLIYYTSRLHLGVPSRFSGSGSGTDYSLTISNLEQEDIATYFCQQGNTLPLTFGAGTKLELK gave log10 of Kd of 2.23

From: patent US20180194862A1
